In this section, each of the molecules is paired with its reported Activity.
Tested on: Amaranthus retroflexus
method: Post-emergence herbicidal activity against Amaranthus retroflexus at 75 g/ha applied through spraying after first true leaf expanded
Format: functional
experimental_readout: Activity (%)

> print(dat)
                                   molecule  quantitative.result
1    CCOCCOC(=O)/C(C#N)=C(/C)NCc1ccc(Cl)nc1                 18.3
2   CCOCCOC(=O)/C(C#N)=C(/NCc1ccc(Cl)nc1)SC                 52.3
3  CCOCCOC(=O)/C(C#N)=C(\NCc1ccc(Cl)nc1)C(C)C                 72.1
4  CS/C(NCc1ccc(Cl)nc1)=C(/C#N)C(=O)OCC1CCCO1 (centres undefined)                 79.1
